System: kunjin virus
Assay: microbe, parasite or virus in culture
Assay type: cell-based
Details: West Nile virus, Huh-7, read-out: ED50
Can you tell me EC50 for the items I'm about to list?
Numbers only, in nM.

Examples from the recorded data:
| compound | study-target | result-type | readout-value |
| --- | --- | --- | --- |
| Cc1c(-c2ccc(-c3ccccc3F)cc2)nc2ccc(F)cc2c1C(=O)[O-].[Na+] [Brequinar, sodium salt] | kunjin virus | EC50 | 30 |
| COc1cc(-c2ccc(Nc3ccccc3C(=O)O)c(OC)c2)ccc1Nc1ccccc1C(=O)O | kunjin virus | EC50 | 520 |
| Cc1nc2c(n1-c1ccc(Br)cc1)C(=O)c1ccccc1C2=O | kunjin virus | EC50 | 1150 |

Please report EC50 for every entry that follows.
1. NC(=O)c1ncn([C@@H]2O[C@H](CO)[C@@H](O)[C@H]2O)n1
2. O=C1C(O)=C(CC=C(Cl)Cl)C(=O)c2ccccc21

Result:
60000
780
